B1: HDV Ribozyme (parent)
chain: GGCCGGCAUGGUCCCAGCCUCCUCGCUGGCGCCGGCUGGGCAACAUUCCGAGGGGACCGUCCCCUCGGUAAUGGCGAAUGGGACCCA

- Variants of: B1
- ASSAY OVERVIEW: self-cleavage, relative activity (ratio to wild type); higher = more cleavage; co-transcriptional
# label = bin(measured self-cleavage), where bins are bin 0: < 0.1; bin 1: ≥ 0.1 and < 0.8; bin 2: ≥ 0.8

Answered examples (5):
VARIANT	GROUP LABEL
C66G C86U	bin 2
C48G A71U	bin 1
C64A U65C	bin 2
G35C U46G	bin 0
G29C C49U	bin 1

Query: Any idea which band U9C G67C is in?
Reply: bin 1

Query: Also check G34A C44G
Reply: bin 1
